Can you tell me composite z-score for the items I'm about to list?
test system: Noggin (protein binding on small-molecule microarray); test: Noggin binders on small-molecule microarray, primary screen, biochemical, 635/667 nm fluorescence (AID 1095); conditions: 635 nm fluorescence, higher = more signal;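 also: score merges 667 nm feature fluorescence with signal to noise over triplicate slides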
Answers are plain numbers.

compound | value-observed
CC(CCN1CCCCc2nc(C)c(C)cc21)=NOC(C)CN1CCCCc2nc(C)c(C)cc21 (stereo not drawn) | 1.04
CCN1C(=O)[C@H]2[C@H]3[C@H](O)C=CC(=O)[C@@H]3CC[C@H]2C1=O | 0.701
COc1ccc([Si](C)(C)[C@H]2[C@H](CCO)O[C@@]3(C(=O)N(Cc4cccc(NC(=O)[C@H](C)O)c4)c4ccccc43)[C@@H]2C)cc1 | 1.24
CC(C)CON=C1[C@H]2CCn3c(=O)n(-c4ccccc4)c(=O)n3[C@H]2[C@H](O)[C@@H]2O[C@H]12 | 0.302
COc1ccc(O[C@H]2C=C[C@@H](c3ccccc3)O[C@@H]2COC(=O)CCC(C)=NO[C@H](C)c2cn([C@@H]3COC[C@H]3O)nn2)cc1 | 0.525

Provide composite z-score values for the following items, in order.
1. CO[C@@H]1COC(=O)CCC[C@@H](C)[C@H](OC)COC(=O)[C@H](Cc2ccccc2)NC(=O)CC=C[C@H]1C
2. CC[C@@H](c1ccccc1)n1c(=O)n2n(c1=O)[C@H]1[C@H](O)[C@@H]3O[C@@H]3C(=NOCC=C(C)CCC=C(C)C)[C@H]1CC2
3. O[C@@H](Cc1ccccc1)[C@H]1C2C=CCCC(c3ccccc3)=C2CN1Cc1cccc(Cl)c1 (stereo partly drawn)
4. Cc1cc2c(c(=O)o1)[C@H](O)[C@H]1O[C@H]1C2=O
5. O=C1C2=CC[C@H]3C(=O)N(Cc4ccc5c(c4)OCO5)C(=O)[C@H]3[C@H]2[C@H](O)[C@@H]2O[C@H]12
6. COC(=O)[C@H](C)NC(=O)[C@@H](C)CO

[0.76, 1.33, 0.96, 0.651, 0.616, 0.67]

* * *

molecular target: Homeobox protein Hox-A13 (Mus musculus) (UniProt Q62424); assay: inhibitors of HoxA13-DNA binding, primary screen, biochemical, fluorescence polarization, labeled oligonucleotide (AID 1185); conditions: 15 min, called active from +8 up or from −8 down
Sequence (Q62424 whole entry, looked up): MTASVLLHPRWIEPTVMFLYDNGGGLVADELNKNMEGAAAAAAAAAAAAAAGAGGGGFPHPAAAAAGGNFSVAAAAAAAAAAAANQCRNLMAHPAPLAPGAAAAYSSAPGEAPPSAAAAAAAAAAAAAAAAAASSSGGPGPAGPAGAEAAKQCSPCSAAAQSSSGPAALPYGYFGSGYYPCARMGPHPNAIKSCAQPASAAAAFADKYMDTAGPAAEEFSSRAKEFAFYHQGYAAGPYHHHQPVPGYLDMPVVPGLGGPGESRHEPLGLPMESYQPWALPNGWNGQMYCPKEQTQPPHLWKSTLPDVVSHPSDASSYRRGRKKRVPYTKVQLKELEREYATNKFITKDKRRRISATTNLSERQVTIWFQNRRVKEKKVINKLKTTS
Activity calls are given as the source filed them.
Returns: one label drawn from active, inactive

compound | group-label
O=C1O[C@@H](c2ccccc2)[C@@H](c2ccccc2)N2[C@@H](c3ccc(OCCO)cc3)[C@]3(C(=O)Nc4ccccc43)[C@@H](C(=O)N3CCN(c4ncccn4)CC3)[C@H]12 | inactive
CC(CCN1CCc2nc(-c3ccccc3)c(-c3ccccc3)cc2C1)=NOC(C)CN1CCCCc2nc(C)c(C)cc21 (centres undefined) | inactive
CN1C(=O)[C@@]2(CCC(=O)OC(C)(C)C)N=C(c3ccc(OCCCO)cc3)O[C@H]2c2ccccc21 | inactive

Per the records of this test, what outcome belongs to [N-]=[N+]=Nc1ccccc1C[C@@]1(C(N)=O)N=C(c2ccc(OCCCO)cc2)O[C@@H]1c1ccccc1 ? inactive

Further, for O=C1[C@H]2[C@H]3[C@H](O)[C@H](O)CC(=NOC[C@@H](O)COCc4ccco4)[C@H]3CC[C@H]2C(=O)N1Cc1ccc2c(c1)OCO2 ? inactive

Further, for O=C1O[C@@H](c2ccccc2)[C@@H](c2ccccc2)N2[C@@H](c3ccc(O)cc3)[C@]3(C(=O)Nc4ccccc43)[C@@H](C(=O)O)[C@H]12 ? inactive

Further, for CC(=O)OC[C@H]1O[C@H](CCON=C[C@@H](C)[C@H](OCc2ccccc2)C(C)C)C=C[C@@H]1OC(C)=O ? inactive

Further, for CCOC(=O)[C@H](Cc1ccccc1)NC(=O)CCC1CC(OC(=O)NCc2ccc3c(c2)OCO3)CC2(CCCC(COC(=O)NCC3CCCCC3)O2)O1 (some centres undefined) ? inactive

Further, for CC(C)NC(=O)[C@@]1(C)c2ccccc2C(=O)N(Cc2cc(F)cc(C(F)(F)F)c2)[C@H]1c1ccc(CO)cc1 ? inactive

Further, for O=C1[C@H]2[C@H]3[C@H](O)[C@H](O)CC(=NOC[C@@H](O)COCc4ccco4)[C@H]3CC[C@H]2C(=O)N1c1cccc(Oc2ccccc2)c1 ? inactive

Further, for O=C1[C@H]2[C@H]3[C@H](O)[C@H](O)CC(=NOC[C@@H](O)COCc4ccco4)[C@H]3CC[C@H]2C(=O)N1C1CCCCC1 ? inactive

Further, for CC(C)=NOCc1cccc(-c2cc(-c3ccccc3)no2)c1 ? inactive

Further, for C[C@@H]1C=CCC(=O)OC[C@H](C)C(=O)N[C@@H](C)C(=O)OC1 ? inactive

Further, for O=C1O[C@@H](c2ccccc2)[C@@H](c2ccccc2)N2[C@@H](c3ccc(OCCO)cc3)[C@]3(C(=O)Nc4ccc(C#CCCO)cc43)[C@@H](C(=O)N3CCCCCCC3)[C@H]12 ? active
